EXPERIMENTAL_TARGET: rat NaPi-2b (Rattus norvegicus)
Sequence (Q9JJ09 1-695): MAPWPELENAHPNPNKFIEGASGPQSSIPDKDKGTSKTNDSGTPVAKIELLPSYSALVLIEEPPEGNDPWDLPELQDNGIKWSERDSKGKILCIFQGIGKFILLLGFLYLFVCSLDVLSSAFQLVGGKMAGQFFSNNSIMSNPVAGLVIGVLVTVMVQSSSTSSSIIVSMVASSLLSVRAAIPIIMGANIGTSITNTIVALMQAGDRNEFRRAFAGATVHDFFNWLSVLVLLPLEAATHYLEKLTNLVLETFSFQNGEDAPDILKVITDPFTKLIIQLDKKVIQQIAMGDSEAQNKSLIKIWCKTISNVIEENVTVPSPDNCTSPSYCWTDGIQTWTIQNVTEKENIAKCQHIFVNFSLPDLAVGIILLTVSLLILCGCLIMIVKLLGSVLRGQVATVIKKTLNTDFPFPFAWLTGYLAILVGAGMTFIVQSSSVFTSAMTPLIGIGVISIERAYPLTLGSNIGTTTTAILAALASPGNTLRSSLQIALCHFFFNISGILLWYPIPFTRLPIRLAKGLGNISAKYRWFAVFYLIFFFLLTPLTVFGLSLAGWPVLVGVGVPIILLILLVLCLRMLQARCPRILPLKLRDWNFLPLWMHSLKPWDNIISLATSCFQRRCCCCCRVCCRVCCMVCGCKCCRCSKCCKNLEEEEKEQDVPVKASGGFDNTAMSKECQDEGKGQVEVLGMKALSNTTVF
RUN_DESCRIPTION: Sodium-dependent phosphate uptake of Xenopus oocytes which expressed NaPi-2b (32P)
DETAILS: Xenopus oocytes expressing rat NaPi-2b, 32P radioactive phosphorus; read-out: IC50 (phosphate uptake inhibitory activity)
METRIC_NAME: IC50 (µM)

(1) O=C(Nc1ccc(Cl)cc1C(=O)N/N=C/c1ccc(O)cc1)c1cccc(CN(CCO)CCO)c1
(2) Cc1cccc(/C=N/NC(=O)c2ccccc2NC(=O)c2ccncc2)c1 [Compound 136]
(3) Cc1ccc(/C=N/NC(=O)c2cc(Br)ccc2NC(=O)c2cccc(CSc3nc[nH]n3)c2)cc1
(4) O=C(Nc1ccccc1C(=O)N/N=C/c1cccc(F)c1)c1ccccc1
Sort the entries above by IC50, smallest first. Give your ranking as a list of the labels in the requested order.
3, 4, 2, 1
(3: 1.02 µM, 4: 1.69 µM, 2: 4.52 µM, 1: 10.1 µM)

(P) COc1ccc(C(=O)Nc2ccccc2C(=O)N/N=C/c2cc(C)c(O)c(C)c2)cc1OC
(Q) O=C(Nc1ccccc1C(=O)N/N=C/c1ccc(F)cc1)c1cccnc1
Would you mind telling me which has the lower recorded IC50 between P and Q ? Pick one; state its label.
P
